# test.details: amyloid nucleation score (Sup35N fusion, yeast selection) (log enrichment); library NNK2; higher = more nucleation; inactive = no reads after selection;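 further: zero at mode of non-aggregating sequences after 7 days selection at 30°C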
measurement.type: amyloid nucleation score

FVLSDQK | 0.347
MHHQSSAFNQGHASPYLSWK | 0.741
DGKFRRVTLRGPLA | 0.554
IKVDSAWETIAVVM | 0.246
ASDWLNRNSNS | -0.211
ICIFHDWVIIICCSIRMRCL | -0.823
FLLWIHF | 1.04
KWMLHSVR | 0.772
ANSYYIVYLGPHHAYFFILK | 3.75
VMGGDVYTAFTDAEDVDSWG | 0.398

Requested read-out: amyloid nucleation score. Entry: "RLRQMCFKRNSVKLLLWNRF"
0.409

Requested read-out: amyloid nucleation score. Entry: "PDFFCRSVVNQKMYLKTLHY"
-1.03

Requested read-out: amyloid nucleation score. Entry: "QRPAGYHQTLSVARQRLRPD"
-0.73
